# Target: T1, soluble CD73 dimer (human, UniProt P21589 27-549, limits assumed)
# T1 construct: CD73 in the flow (SPR) or in solution (BLI binning); also called soluble human CD73
# T1 sequence: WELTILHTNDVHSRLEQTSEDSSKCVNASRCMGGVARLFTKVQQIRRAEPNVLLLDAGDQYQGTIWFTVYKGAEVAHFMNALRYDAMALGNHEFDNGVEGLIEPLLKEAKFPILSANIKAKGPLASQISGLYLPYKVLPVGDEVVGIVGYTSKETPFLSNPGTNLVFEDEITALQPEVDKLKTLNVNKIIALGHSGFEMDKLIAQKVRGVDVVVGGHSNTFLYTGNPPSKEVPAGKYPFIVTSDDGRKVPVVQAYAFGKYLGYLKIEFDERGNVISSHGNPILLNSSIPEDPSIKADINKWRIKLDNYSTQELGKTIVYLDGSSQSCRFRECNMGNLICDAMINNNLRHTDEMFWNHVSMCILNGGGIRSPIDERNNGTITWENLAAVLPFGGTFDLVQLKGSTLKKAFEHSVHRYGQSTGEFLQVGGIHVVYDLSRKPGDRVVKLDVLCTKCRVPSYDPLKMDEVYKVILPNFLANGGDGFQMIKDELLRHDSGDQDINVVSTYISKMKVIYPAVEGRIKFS
# Assay protocol: SPR, antibody captured on Protein A chip, CD73 in flow; Langmuir ka with major component kd
pKd: −log10 of the molar value.
Measured pKd by item
Measured parameter: pKd

[
  {
    "Binder": "TB19/H19 (bispecific antibody, part only; not given: H19 arm; constant regions, V domains shown, part only) VH: QEQLQESGPGLVKPSETLSLTCTVSGGSIRNNYYNWIRQPAGKGLEWIGRIYISGTTNSNPSLKSRVTMSIDTSKNQFSLKLSSVTAADTAIYYCAREHYVSGTSLDNWGQGTLVTVSS VL: EIVMTQSPTTLSLSPGERATLSCRASQSVNTNYFSWYQQKPGLTPRLLIYGTSTRATGIPARFSGSGSGTDFTLTISSLQPEDFGIYYCQQDYNLPYTFGQGTYLEIK",
    "Measured parameter": "pKd",
    "Measured value": 10.22
  },
  {
    "Binder": "TB19/TC29 (bispecific antibody, part only; not given: TC29 arm; constant regions, V domains shown, part only) VH: QEQLQESGPGLVKPSETLSLTCTVSGGSIRNNYYNWIRQPAGKGLEWIGRIYISGTTNSNPSLKSRVTMSIDTSKNQFSLKLSSVTAADTAIYYCAREHYVSGTSLDNWGQGTLVTVSS VL: EIVMTQSPTTLSLSPGERATLSCRASQSVNTNYFSWYQQKPGLTPRLLIYGTSTRATGIPARFSGSGSGTDFTLTISSLQPEDFGIYYCQQDYNLPYTFGQGTYLEIK",
    "Measured parameter": "pKd",
    "Measured value": 9.94
  },
  {
    "Binder": "TB19/AS30 (bispecific antibody, part only; not given: AS30 arm, constant regions, V domains shown, not shown: another chain or arm of the molecule; a dimerising Fc or GST; small tags and cut ends) VH: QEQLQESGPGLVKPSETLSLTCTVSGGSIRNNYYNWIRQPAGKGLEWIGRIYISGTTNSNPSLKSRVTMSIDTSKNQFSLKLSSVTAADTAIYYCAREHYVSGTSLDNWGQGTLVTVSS VL: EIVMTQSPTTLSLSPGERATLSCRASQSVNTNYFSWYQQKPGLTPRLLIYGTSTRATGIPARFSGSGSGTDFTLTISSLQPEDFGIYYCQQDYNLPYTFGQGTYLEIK",
    "Measured parameter": "pKd",
    "Measured value": 8.38
  }
]

The reported measurements were obtained from patent US20220403041A1.
